Target: human integrin αvβ5 (Homo sapiens, UniProt P06756+P18084)
Sequence (P06756 31-1048): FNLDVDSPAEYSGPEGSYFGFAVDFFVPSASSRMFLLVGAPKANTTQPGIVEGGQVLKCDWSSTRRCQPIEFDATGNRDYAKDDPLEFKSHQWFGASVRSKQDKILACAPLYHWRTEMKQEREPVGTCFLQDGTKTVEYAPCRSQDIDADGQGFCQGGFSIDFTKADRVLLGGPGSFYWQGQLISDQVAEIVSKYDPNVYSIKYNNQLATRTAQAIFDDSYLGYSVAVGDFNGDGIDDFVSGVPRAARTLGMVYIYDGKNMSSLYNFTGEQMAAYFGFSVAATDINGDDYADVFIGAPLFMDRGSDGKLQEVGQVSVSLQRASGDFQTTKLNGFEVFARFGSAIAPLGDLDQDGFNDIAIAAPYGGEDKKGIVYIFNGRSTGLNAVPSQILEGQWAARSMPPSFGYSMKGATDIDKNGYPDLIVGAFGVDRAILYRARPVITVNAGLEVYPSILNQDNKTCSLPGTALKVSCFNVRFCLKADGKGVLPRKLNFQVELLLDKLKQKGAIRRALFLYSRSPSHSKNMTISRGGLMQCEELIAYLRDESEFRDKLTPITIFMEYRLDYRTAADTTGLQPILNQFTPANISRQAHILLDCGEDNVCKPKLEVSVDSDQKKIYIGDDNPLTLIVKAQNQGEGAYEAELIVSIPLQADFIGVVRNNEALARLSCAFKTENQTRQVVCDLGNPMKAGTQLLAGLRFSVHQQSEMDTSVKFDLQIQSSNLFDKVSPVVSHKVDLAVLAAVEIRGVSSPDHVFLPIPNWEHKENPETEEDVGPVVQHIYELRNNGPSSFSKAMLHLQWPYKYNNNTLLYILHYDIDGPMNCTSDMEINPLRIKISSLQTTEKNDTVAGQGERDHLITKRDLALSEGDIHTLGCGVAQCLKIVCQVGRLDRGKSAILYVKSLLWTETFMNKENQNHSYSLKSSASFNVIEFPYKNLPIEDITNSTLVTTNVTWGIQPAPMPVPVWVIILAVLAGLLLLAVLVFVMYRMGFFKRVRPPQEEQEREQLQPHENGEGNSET
Sequence (P18084 24-799): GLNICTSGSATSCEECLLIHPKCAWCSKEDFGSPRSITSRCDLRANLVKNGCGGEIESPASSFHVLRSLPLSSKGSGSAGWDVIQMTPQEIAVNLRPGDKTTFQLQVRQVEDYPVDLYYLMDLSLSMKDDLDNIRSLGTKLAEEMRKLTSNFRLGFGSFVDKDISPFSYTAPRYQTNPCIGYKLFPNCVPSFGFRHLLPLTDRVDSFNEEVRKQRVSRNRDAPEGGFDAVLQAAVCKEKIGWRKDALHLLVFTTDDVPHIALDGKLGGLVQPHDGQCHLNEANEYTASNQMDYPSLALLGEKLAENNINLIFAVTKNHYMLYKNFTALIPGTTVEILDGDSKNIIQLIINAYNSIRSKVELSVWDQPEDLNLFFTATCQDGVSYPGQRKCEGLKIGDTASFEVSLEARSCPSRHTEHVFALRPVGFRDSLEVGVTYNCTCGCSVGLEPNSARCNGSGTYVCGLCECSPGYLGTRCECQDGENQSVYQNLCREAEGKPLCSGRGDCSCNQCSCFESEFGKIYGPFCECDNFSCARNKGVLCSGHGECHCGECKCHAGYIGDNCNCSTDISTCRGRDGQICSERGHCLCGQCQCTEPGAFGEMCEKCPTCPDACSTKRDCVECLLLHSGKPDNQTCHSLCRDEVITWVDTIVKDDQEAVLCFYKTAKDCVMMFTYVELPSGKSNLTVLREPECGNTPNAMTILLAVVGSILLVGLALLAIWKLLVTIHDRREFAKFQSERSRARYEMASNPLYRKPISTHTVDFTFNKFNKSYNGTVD
Test: Evaluation of integrin binding property (surface plasmon resonance, Biacore 3000, immobilized cyclic peptide)
Settings: surface plasmon resonance, immobilized cyclic peptide, human integrin αvβ5; read-out: Binding activity (integrin binding property, dissociation constant rank)
pKd: −log10 of the molar value. Starred links: 1 amine or outer side, 2 acyl side, 3 side chain; linkers in the order of their positions; H or OH if unused. Positions of bridges follow the written chain, without caps; N, C: chain ends. Non-standard residues stand in square brackets, D forms with d. Residues, ends and D or L forms follow the SMILES beside them. hCys = N[C@@H](CCS)C(=O)O; Orn = NCCC[C@H](N)C(=O)O; X1 = O=C(C[*:2])[*:1]

- compound: "CC[C@H](C)[C@@H]1NC(=O)[C@@H](NC(=O)CNC(=O)[C@H](CCCCN)NC(=O)[C@H](CCCCN)NC(=O)[C@@H](N)CCCCN)CCCNC(=O)CSCC[C@@H](C(=O)N[C@@H](C)C(=O)O)NC(=O)[C@H](CCCNC(=N)N)NC(=O)[C@H](Cc2ccccc2)NC(=O)[C@H]([C@@H](C)O)NC(=O)[C@H](CC(=O)O)NC(=O)CNC(=O)[C@H](CCCNC(=N)N)NC(=O)[C@@H]2CCCN2C1=O [Cyclic peptide 119, KKKG(Orn(acetyl))IPRGDTFR-(Hcy)-A] (H-KKKG[Orn]IPRGDTFR[hCys]A-OH; linker 5-14 via X1)"
  pKd: "> 7.30"

---

Target: human integrin αvβ5 (Homo sapiens, UniProt P06756+P18084)
Experiment: Evaluation of integrin binding property (surface plasmon resonance, Biacore 3000, immobilized cyclic peptide)
Conditions: surface plasmon resonance, immobilized cyclic peptide, human integrin αvβ5; read-out: Binding activity (integrin binding property, dissociation constant rank)
pKd: −log10 of the molar value. Starred links: 1 amine or outer side, 2 acyl side, 3 side chain; linkers in the order of their positions; H or OH if unused. Positions of bridges follow the written chain, without caps; N, C: chain ends. Non-standard residues stand in square brackets, D forms with d. Residues, ends and D or L forms follow the SMILES beside them. hCys = N[C@@H](CCS)C(=O)O; X2 = O=C(C[*:1])[*:2]
metric.name: pKd

- compound: "CC[C@H](C)[C@@H]1NC(=O)[C@@H](NC(=O)[C@H](C)NC(=O)[C@H](CCCCN)NC(=O)[C@H](CCCCN)NC(=O)[C@@H](N)CCCCN)CCSCC(=O)NCCCC[C@@H](C(=O)N[C@@H](C)C(=O)O)NC(=O)[C@H](C)NC(=O)[C@H](Cc2ccccc2)NC(=O)[C@H](CO)NC(=O)[C@H](CC(=O)O)NC(=O)CNC(=O)[C@H](CCCNC(=N)N)NC(=O)[C@@H]2CCCN2C1=O [Cyclic peptide 123, KKKA-(Hcy)-IPRGDSFA(Lys(acetyl))A] (H-KKKA[hCys]IPRGDSFAKA-OH; linker 5-14 via X2)"
  result: "> 7.30"

---

Target: human integrin αvβ5 (Homo sapiens, UniProt P06756+P18084)
Assay: Evaluation of integrin binding property (surface plasmon resonance, Biacore 3000, immobilized cyclic peptide)
Conditions: surface plasmon resonance, immobilized cyclic peptide, human integrin αvβ5; read-out: Binding activity (integrin binding property, dissociation constant rank)
pKd: −log10 of the molar value. Starred links: 1 amine or outer side, 2 acyl side, 3 side chain; linkers in the order of their positions; H or OH if unused. Positions of bridges follow the written chain, without caps; N, C: chain ends. Non-standard residues stand in square brackets, D forms with d. Residues, ends and D or L forms follow the SMILES beside them. hCys = N[C@@H](CCS)C(=O)O; Dab = NCC[C@H](N)C(=O)O; X2 = O=C(C[*:1])[*:2]
metric.name: pKd

- compound: "C[C@@H]1NC(=O)[C@H](Cc2ccccc2)NC(=O)[C@H](CO)NC(=O)[C@H](CC(=O)O)NC(=O)CNC(=O)[C@H](CCCNC(=N)N)NC(=O)[C@@H]2CCCN2C(=O)[C@H]([C@@H](C)O)NC(=O)[C@@H](NC(=O)[C@H](CCCCN)NC(=O)[C@H](CCCCN)NC(=O)[C@@H](N)CCCCN)CCSCC(=O)NCC[C@@H](C(=O)O)NC1=O [Cyclic peptide 156, KKK-(Hcy)-TPRGDSFA(Dab(acetyl))] (H-KKK[hCys]TPRGDSFA[Dab]-OH; linker 4-13 via X2)"
  metric.name: "pKd"
  result: "7.00 to 7.30"

---

Target: human integrin αvβ5 (Homo sapiens, UniProt P06756+P18084)
Assay: Evaluation of integrin binding property (surface plasmon resonance, Biacore 3000, immobilized cyclic peptide)
Conditions: SPR, 25° C., HEPES buffer with 5 mM magnesium chloride, integrin 30-1,000 nM; read-out: Performance evaluation: Binding activity (dissociation constant between the cyclic peptide and human integrin αvβ5)
pKd: −log10 of the molar value. Starred links: 1 amine or outer side, 2 acyl side, 3 side chain; linkers in the order of their positions; H or OH if unused. Positions of bridges follow the written chain, without caps; N, C: chain ends. Non-standard residues stand in square brackets, D forms with d. Residues, ends and D or L forms follow the SMILES beside them. hCys = N[C@@H](CCS)C(=O)O; Dab = NCC[C@H](N)C(=O)O; X2 = O=C(C[*:1])[*:2]
metric.name: pKd

- compound: "N=C(N)NCCC[C@@H]1NC(=O)[C@H](Cc2ccc(O)cc2)NC(=O)[C@H](CC(N)=O)NC(=O)[C@H](CC(=O)O)NC(=O)CNC(=O)[C@H](CCCNC(=N)N)NC(=O)[C@@H]2CCCN2C(=O)[C@H](CCC(=O)O)NC(=O)[C@@H](NC(=O)[C@H](CCC(=O)O)NC(=O)[C@H](CCCCN)NC(=O)[C@H](CCCCN)NC(=O)[C@@H](N)CCCCN)CCSCC(=O)NCC[C@@H](C(=O)N[C@@H](CC(=O)O)C(=O)O)NC1=O [Cyclic peptide 39, KKKE-(Hcy)-EPRGDNYR(Dab(acetyl))D] (H-KKKE[hCys]EPRGDNYR[Dab]D-OH; linker 5-14 via X2)"
  result: "> 7.30"

---

Target: human integrin αvβ5 (Homo sapiens, UniProt P06756+P18084)
Test: Evaluation of integrin binding property (surface plasmon resonance, Biacore 3000, immobilized cyclic peptide)
Settings: surface plasmon resonance, immobilized cyclic peptide, human integrin αvβ5; read-out: Binding activity (integrin binding property, dissociation constant rank)
Text: […]
Starred links: 1 amine or outer side, 2 acyl side, 3 side chain; linkers in the order of their positions; H or OH if unused. Positions of bridges follow the written chain, without caps; N, C: chain ends. Non-standard residues stand in square brackets, D forms with d. Residues, ends and D or L forms follow the SMILES beside them. hCys = N[C@@H](CCS)C(=O)O; Dab = NCC[C@H](N)C(=O)O; X2 = O=C(C[*:1])[*:2]
metric.name: Kd

- compound: "C[C@H](NC(=O)[C@@H]1CCNC(=O)CSCC[C@H](NC(=O)[C@H](C)NC(=O)[C@H](CCCCN)NC(=O)[C@H](CCCCN)NC(=O)[C@@H](N)CCCCN)C(=O)N[C@@H]([C@@H](C)O)C(=O)N[C@@H]([C@@H](C)O)C(=O)N[C@@H](CCCNC(=N)N)C(=O)NCC(=O)N[C@@H](CC(=O)O)C(=O)N[C@@H](CO)C(=O)N[C@@H](Cc2ccccc2)C(=O)N[C@@H](C)C(=O)N1)C(=O)O [Cyclic peptide 161, KKKA-(Hcy)-TTRGDSFA(Dab(acetyl))A] (H-KKKA[hCys]TTRGDSFA[Dab]A-OH; linker 5-14 via X2)"
  result: "0.05 to 0.1 µM"

---

Molecular target: human integrin αvβ5 (Homo sapiens, UniProt P06756+P18084)
Experiment: Evaluation of integrin binding property (surface plasmon resonance, Biacore 3000, immobilized cyclic peptide)
Details: SPR, 25° C., HEPES buffer with 5 mM magnesium chloride, integrin 30-1,000 nM; read-out: Performance evaluation: Binding activity (dissociation constant between the cyclic peptide and human integrin αvβ5)
Starred links: 1 amine or outer side, 2 acyl side, 3 side chain; linkers in the order of their positions; H or OH if unused. Positions of bridges follow the written chain, without caps; N, C: chain ends. Non-standard residues stand in square brackets, D forms with d. Residues, ends and D or L forms follow the SMILES beside them. hCys = N[C@@H](CCS)C(=O)O; Dab = NCC[C@H](N)C(=O)O; X2 = O=C(C[*:1])[*:2]; βAla = NCCC(=O)O
metric.name: Kd

- molecule: "CC(C)[C@@H]1NC(=O)[C@@H](NC(=O)[C@H](C)NC(=O)[C@H](CCCCN)NC(=O)[C@H](CCCCN)NC(=O)[C@@H](N)CCCCN)CCSCC(=O)NCC[C@@H](C(=O)N[C@@H](C)C(=O)O)NC(=O)[C@H](C)NC(=O)[C@H](Cc2ccccc2)NC(=O)[C@H](CO)NC(=O)[C@H](CC(=O)O)NC(=O)CNC(=O)[C@H](CCCNC(=N)N)NC(=O)[C@@H]2CCCN2C1=O [Cyclic peptide 96, KKKA-(Hcy)-VPRGDSFA(Dab(acetyl))A] (H-KKKA[hCys]VPRGDSFA[Dab]A-OH; linker 5-14 via X2)"
  result: "< 50 nM"
- molecule: "CC[C@H](C)[C@@H]1NC(=O)[C@@H](NC(=O)[C@H](CCCCN)NC(=O)[C@H](CCCCN)NC(=O)[C@@H](N)CCCCN)CCSCC(=O)NCC[C@@H](C(=O)N[C@@H](C)C(=O)O)NC(=O)[C@H](CCCNC(=N)N)NC(=O)[C@H](Cc2ccccc2)NC(=O)[C@H](CC(N)=O)NC(=O)[C@H](CC(=O)O)NC(=O)CNC(=O)[C@H](CCCNC(=N)N)NC(=O)[C@@H]2CCCN2C1=O [Cyclic peptide 3, KKK-(Hcy)-IPRGDNFR(Dab(acetyl))A] (H-KKK[hCys]IPRGDNFR[Dab]A-OH; linker 4-13 via X2)"
  result: "< 50 nM"
- molecule: "CC[C@H](C)[C@@H]1NC(=O)[C@@H](NC(=O)[C@H](CCCCN)NC(=O)[C@H](CCCCN)NC(=O)[C@@H](N)CCCCN)CCSCC(=O)NCC[C@@H](C(=O)O)NC(=O)[C@H](Cc2ccccc2)NC(=O)[C@H]([C@@H](C)O)NC(=O)[C@H](CC(=O)O)NC(=O)CNC(=O)[C@H](CCCNC(=N)N)NC(=O)[C@@H]2CCCN2C1=O [Cyclic peptide 63, KKK-(Hcy)-IPRGDTF(Dab(acetyl))] (H-KKK[hCys]IPRGDTF[Dab]-OH; linker 4-12 via X2)"
  result: "< 50 nM"
- molecule: "N=C(N)NCCC[C@@H]1NC(=O)[C@H](Cc2ccc(O)cc2)NC(=O)[C@H](CC(N)=O)NC(=O)[C@H](CC(=O)O)NC(=O)CNC(=O)[C@H](CCCNC(=N)N)NC(=O)[C@@H]2CCCN2C(=O)[C@H](CCC(=O)O)NC(=O)[C@@H](NC(=O)CCNC(=O)[C@H](CCCCN)NC(=O)[C@H](CCCCN)NC(=O)[C@@H](N)CCCCN)CCSCC(=O)NCC[C@@H](C(N)=O)NC1=O [Cyclic peptide 51, KKKβA-(Hcy)-EPRGDNYR(Dab(acetyl))] (H-KKK[βAla][hCys]EPRGDNYR[Dab]-NH2; linker 5-14 via X2)"
  result: "100 to 200 nM"
- molecule: "CC[C@H](C)[C@@H]1NC(=O)[C@@H](NC(=O)[C@H](CCCCN)NC(=O)[C@H](CCCCN)NC(=O)[C@@H](N)CCCCN)CCSCC(=O)NCC[C@@H](C(=O)N[C@@H](CC(=O)O)C(=O)O)NC(=O)[C@H](CCCNC(=N)N)NC(=O)[C@H](Cc2ccccc2)NC(=O)[C@H](CC(N)=O)NC(=O)[C@H](CC(=O)O)NC(=O)CNC(=O)[C@H](CCCNC(=N)N)NC(=O)[C@@H]2CCCN2C1=O [Cyclic peptide 5, KKK-(Hcy)-IPRGDNFR(Dab(acetyl))D] (H-KKK[hCys]IPRGDNFR[Dab]D-OH; linker 4-13 via X2)"
  result: "< 50 nM"
- molecule: "C[C@H](NC(=O)[C@H](CCCCN)NC(=O)[C@H](CCCCN)NC(=O)[C@@H](N)CCCCN)C(=O)N[C@H]1CCSCC(=O)NCC[C@@H](C(=O)N[C@@H](CC(=O)O)C(=O)O)NC(=O)[C@H](CCCNC(=N)N)NC(=O)[C@H](Cc2ccc(O)cc2)NC(=O)[C@H](CC(N)=O)NC(=O)[C@H](CC(=O)O)NC(=O)CNC(=O)[C@H](CCCNC(=N)N)NC(=O)[C@@H]2CCCN2C(=O)[C@H](Cc2ccc(O)cc2)NC1=O [Cyclic peptide 32, KKKA-(Hcy)-YPRGDNYR(Dab(acetyl))D] (H-KKKA[hCys]YPRGDNYR[Dab]D-OH; linker 5-14 via X2)"
  result: "< 50 nM"
- molecule: "CC(C)C[C@@H]1NC(=O)[C@@H](NC(=O)CNC(=O)[C@H](CCCCN)NC(=O)[C@H](CCCCN)NC(=O)[C@@H](N)CCCCN)CCSCC(=O)NCC[C@@H](C(=O)N[C@@H](C)C(=O)O)NC(=O)[C@H](CCCNC(=N)N)NC(=O)[C@H](Cc2ccccc2)NC(=O)[C@H](CO)NC(=O)[C@H](CC(=O)O)NC(=O)CNC(=O)[C@H](CCCNC(=N)N)NC(=O)[C@@H]2CCCN2C1=O [Cyclic peptide 28, KKKG-(Hcy)-LPRGDSFR(Dab(acetyl))A] (H-KKKG[hCys]LPRGDSFR[Dab]A-OH; linker 5-14 via X2)"
  result: "50 to 100 nM"
- molecule: "N=C(N)NCCC[C@@H]1NC(=O)[C@H](Cc2ccc(O)cc2)NC(=O)[C@H](CC(N)=O)NC(=O)[C@H](CC(=O)O)NC(=O)CNC(=O)[C@H](CCCNC(=N)N)NC(=O)[C@@H]2CCCN2C(=O)[C@H](CCC(=O)O)NC(=O)[C@@H](NC(=O)[C@H](CCCCN)NC(=O)[C@H](CCCCN)NC(=O)[C@@H](N)CCCCN)CCSCC(=O)NCC[C@@H](C(N)=O)NC1=O [Cyclic peptide 49, KKK-(Hcy)-EPRGDNYR(Dab(acetyl))] (H-KKK[hCys]EPRGDNYR[Dab]-NH2; linker 4-13 via X2)"
  result: "50 to 100 nM"
